# tgt: Acetylcholinesterase (Electrophorus electricus)
# protocol.details: Reversible mixed-type inhibition of electric eel acetylcholinesterase using acetylcholine bromide as substrate by Lineweaver-Burk plot analysis
Exercise: state measured Ki for each of the molecules provided.

Okay, here is my list. What is Ki for each of these?
1. CCC[n+]1cc2ccccc2c2ccccc21
2. c1ccc(CC[n+]2cccc3c4ccccc4ccc32)cc1
3. c1ccc2c(c1)ccc1c2ccc[n+]1CCCCCC[n+]1cccc2c3ccccc3ccc21
4. C[n+]1cccc2c3ccccc3ccc21
5. c1ccc(C[n+]2cccc3c4ccccc4ccc32)cc1
6. c1ccc2c(c1)c[n+](CCCCCC[n+]1cc3ccccc3c3ccccc31)c1ccccc21
7. OCC[n+]1cccc2ccc3ccccc3c21

["13.6 µM", "18.5 µM", "0.072 µM", "25.4 µM", "37.4 µM", "0.0066 µM", "360 µM"]

====

# tgt: Acetylcholinesterase (Electrophorus electricus, UniProt O42275)
# Sequence (O42275 whole entry): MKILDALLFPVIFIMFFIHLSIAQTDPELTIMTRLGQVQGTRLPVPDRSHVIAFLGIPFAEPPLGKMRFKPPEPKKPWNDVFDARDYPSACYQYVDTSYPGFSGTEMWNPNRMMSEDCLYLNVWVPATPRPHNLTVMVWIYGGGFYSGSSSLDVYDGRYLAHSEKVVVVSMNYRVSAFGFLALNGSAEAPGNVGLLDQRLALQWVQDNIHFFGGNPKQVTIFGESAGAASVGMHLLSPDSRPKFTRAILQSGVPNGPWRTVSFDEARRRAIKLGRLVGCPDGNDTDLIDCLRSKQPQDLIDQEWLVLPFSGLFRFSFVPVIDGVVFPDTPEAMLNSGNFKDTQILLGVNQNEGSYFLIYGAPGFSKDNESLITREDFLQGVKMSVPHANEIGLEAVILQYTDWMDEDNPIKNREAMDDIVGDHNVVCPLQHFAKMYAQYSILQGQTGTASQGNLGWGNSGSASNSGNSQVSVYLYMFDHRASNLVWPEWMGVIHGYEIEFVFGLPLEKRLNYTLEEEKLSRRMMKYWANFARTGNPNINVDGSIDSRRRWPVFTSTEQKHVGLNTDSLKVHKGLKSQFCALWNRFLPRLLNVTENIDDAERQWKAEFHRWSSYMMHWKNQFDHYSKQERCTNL
# protocol.details: Reversible mixed-type inhibition of electric eel acetylcholinesterase using acetylcholine bromide as substrate by Lineweaver-Burk plot analysis
value.kind: Ki

Examples from the recorded data:
* C[n+]1cccc2ccc3ccccc3c21 | 140 µM
* OCC[n+]1cccc2c3ccccc3ccc21 | 160 µM
* OCC[n+]1c2ccccc2cc2ccccc21 | 9.6 µM

Would you mind giving Ki for every compound in the list below?
1. c1ccc2c(c1)c[n+](Cc1ccc(C[n+]3cc4ccccc4c4ccccc43)cc1)c1ccccc21
2. O=C(O)C[n+]1cc2ccccc2c2ccccc21
3. CCCCCC[n+]1cc2ccccc2c2ccccc21

1: 0.71 µM; 2: 72.4 µM; 3: 1.8 µM
